- System: Human immunodeficiency virus 1
- MEASUREMENT NOTES: Antiviral activity against HIV1 subtype A isolate 92UG037 infected in human PBMC
- Type: functional, organism-based
- MEASUREMENT SETUP: Human immunodeficiency virus 1, isolate 92UG037
pIC50: −log10 of the molar value.
ASSAY READOUT: pIC50

compound="COc1cnc(-n2cnc(C)n2)c2[nH]cc(C(=O)C(=O)N3CC4CN(C(=O)C5=CCCCC5)CC4C3)c12 (stereo unspecified)" assay_readout=pIC50 recorded_value=4.60

* * *

- Test system: Human immunodeficiency virus 1
- MEASUREMENT NOTES: Antiviral activity against HIV1 subtype D isolate 99UG_A07412M1 infected in human PBMC
- Type: functional, organism-based
- MEASUREMENT SETUP: Human immunodeficiency virus 1, isolate 99UG_A07412M1
pIC50: −log10 of the molar value.
ASSAY READOUT: pIC50

compound="COc1cnc(-n2cnc(C)n2)c2[nH]cc(C(=O)C(=O)N3CC4CN(C(=O)C5=CCCCC5)CC4C3)c12 (stereo unspecified)" assay_readout=pIC50 recorded_value=6.31
